Cited source: ChEMBL document CHEMBL1201862

biological target: Glucose-6-phosphate 1-dehydrogenase (Homo sapiens, UniProt P11413); experiment: inhibition of Homo sapiens G6PD, dose series – biochemical, fluorescence, selectivity assay for P. falciparum G6PD inhibitor project, dose response (AID 504792); format: functional
Sequence (P11413 whole entry): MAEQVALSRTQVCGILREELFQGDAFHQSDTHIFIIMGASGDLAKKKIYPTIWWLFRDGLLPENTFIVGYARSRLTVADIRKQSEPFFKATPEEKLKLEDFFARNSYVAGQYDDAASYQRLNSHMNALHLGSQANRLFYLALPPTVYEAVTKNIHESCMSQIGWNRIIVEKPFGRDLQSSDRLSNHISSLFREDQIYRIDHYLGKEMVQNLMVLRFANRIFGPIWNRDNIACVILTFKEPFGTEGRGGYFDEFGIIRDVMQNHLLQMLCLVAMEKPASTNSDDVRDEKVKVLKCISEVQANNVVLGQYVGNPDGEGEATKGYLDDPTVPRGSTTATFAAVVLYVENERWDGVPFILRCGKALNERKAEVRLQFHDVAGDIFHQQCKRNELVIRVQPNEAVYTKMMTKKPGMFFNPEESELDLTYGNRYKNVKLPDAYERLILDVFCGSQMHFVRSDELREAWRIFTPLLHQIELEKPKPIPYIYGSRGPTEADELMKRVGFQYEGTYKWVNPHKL
Activity calls are given as the source filed them. No stated cut-off is given here; in the data, active = IC50 of 20 µM or less and inactive = more.

{"smiles.structure": "COc1cccc2nc3cc(C)c(C)cc3nc12", "IC50": "37.1 µM (inactive)"}
{"smiles.structure": "Clc1cccc(Cl)c1CNc1ccc(N2CCCC2)cc1", "IC50": "> 80 µM (inactive)"}
{"smiles.structure": "CC(=O)Nc1cc([N+](=O)[O-])ccc1OCc1ccccc1", "IC50": "> 80 µM (inactive)"}
{"smiles.structure": "CC(=NNC(=S)N1CCN(c2ccccn2)CC1)c1nccs1", "IC50": "> 80 µM (inactive)"}
